- Test system: Tyrosine-protein phosphatase non-receptor type 1 (Homo sapiens), P18031 [P87C,A122C]
- Sequence (P18031 whole entry P87C/A122C, the tested form may be a part): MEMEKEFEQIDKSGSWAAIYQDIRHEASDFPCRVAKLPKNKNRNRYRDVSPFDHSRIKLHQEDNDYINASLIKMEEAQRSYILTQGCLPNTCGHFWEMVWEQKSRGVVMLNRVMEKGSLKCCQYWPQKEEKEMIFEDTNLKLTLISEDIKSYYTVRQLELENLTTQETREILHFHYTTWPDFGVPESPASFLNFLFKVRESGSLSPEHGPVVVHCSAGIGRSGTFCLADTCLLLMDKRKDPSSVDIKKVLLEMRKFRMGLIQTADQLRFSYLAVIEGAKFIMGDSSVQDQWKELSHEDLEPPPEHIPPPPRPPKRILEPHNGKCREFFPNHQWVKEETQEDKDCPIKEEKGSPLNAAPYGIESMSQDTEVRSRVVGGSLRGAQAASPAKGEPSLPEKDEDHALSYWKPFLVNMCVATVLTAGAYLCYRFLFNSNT
- method-summary: Inhibition of allosterically sensitized His6-tagged human PTP1B catalytic domain P87C/A122C mutant at 250 nM using pNPP as substrate incubated for 90 mins by quenched phosphatase activity assay
The source made the active and inactive calls. The rule behind the calls is not given here.
readout-label: inhibition

{"smiles-repr": "CC1(C)C(/C=C/C=C/C=C2/N(CCCCS(=O)(=O)O)c3ccc([As]4SCCS4)cc3C2(C)C)=[N+](CCCCS(=O)(=O)O)c2ccc([As]3SCCS3)cc21", "measured-result": "Active"}
{"smiles-repr": "CC1(C)C(/C=C/C=C2/N(CCCCS(=O)(=O)O)c3ccc([As]4SCCS4)cc3C2(C)C)=[N+](CCCCS(=O)(=O)O)c2ccc([As]3SCCS3)cc21", "measured-result": "70%"}
{"smiles-repr": "O=c1ccc2nc3ccc(O)c([As]4SCCS4)c3oc-2c1[As]1SCCS1", "measured-result": "Active"}
{"smiles-repr": "O=C(O)c1ccccc1-c1c2ccc(=O)c([As]3SCCS3)c-2oc2c([As]3SCCS3)c(O)ccc12", "measured-result": "Active"}
